meta.source: patent US20230115176A1

Molecular target: Human C5 (Homo sapiens, UniProt P01031)
Construct: purchased Complement Technology
Sequence (P01031 19-1676): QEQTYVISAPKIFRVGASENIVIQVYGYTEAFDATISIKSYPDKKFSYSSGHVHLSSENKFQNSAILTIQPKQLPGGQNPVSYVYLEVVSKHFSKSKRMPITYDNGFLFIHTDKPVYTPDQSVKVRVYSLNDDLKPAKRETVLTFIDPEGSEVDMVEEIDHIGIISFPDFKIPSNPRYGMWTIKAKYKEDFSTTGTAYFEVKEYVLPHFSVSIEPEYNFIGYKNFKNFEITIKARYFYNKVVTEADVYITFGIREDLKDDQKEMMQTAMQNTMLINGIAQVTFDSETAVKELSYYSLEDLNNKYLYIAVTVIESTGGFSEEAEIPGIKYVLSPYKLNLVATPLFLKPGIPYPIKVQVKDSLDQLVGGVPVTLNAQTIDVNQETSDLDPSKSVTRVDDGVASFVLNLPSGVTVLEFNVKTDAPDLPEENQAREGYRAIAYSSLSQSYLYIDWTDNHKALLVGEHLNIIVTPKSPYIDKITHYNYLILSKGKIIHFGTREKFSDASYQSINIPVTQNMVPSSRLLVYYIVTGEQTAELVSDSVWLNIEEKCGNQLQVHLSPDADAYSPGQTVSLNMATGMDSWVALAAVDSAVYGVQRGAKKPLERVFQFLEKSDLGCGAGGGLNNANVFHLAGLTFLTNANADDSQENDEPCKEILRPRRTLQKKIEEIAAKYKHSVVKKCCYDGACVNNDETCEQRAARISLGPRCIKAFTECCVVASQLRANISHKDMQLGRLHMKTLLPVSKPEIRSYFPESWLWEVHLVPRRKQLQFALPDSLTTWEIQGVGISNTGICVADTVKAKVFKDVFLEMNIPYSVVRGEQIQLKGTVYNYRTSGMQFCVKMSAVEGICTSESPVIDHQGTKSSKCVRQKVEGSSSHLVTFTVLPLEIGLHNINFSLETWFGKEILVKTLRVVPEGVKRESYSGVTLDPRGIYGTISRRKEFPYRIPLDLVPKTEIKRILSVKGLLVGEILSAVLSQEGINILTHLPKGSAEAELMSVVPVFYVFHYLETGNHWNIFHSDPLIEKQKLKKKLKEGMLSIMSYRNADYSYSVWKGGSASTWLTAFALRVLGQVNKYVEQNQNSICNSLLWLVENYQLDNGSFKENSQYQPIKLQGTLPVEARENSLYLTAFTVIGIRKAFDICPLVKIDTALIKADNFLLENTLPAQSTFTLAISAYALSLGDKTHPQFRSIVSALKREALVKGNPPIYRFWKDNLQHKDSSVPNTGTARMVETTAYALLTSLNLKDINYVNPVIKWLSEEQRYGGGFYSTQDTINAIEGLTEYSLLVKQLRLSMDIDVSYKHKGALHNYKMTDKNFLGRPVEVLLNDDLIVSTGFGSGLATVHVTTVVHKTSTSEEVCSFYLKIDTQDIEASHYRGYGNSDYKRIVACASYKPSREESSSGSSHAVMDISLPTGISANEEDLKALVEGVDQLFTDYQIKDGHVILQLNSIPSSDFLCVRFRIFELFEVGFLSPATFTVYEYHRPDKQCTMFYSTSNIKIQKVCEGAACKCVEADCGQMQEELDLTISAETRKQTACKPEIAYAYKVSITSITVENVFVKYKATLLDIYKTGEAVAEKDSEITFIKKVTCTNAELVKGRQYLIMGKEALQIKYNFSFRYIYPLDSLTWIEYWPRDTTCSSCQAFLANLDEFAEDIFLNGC
Experiment: Red blood cell (RBC) hemolysis assay, luminescent (Example 24, Table 29)
Type: cell-based
Details: sheep EA cells, […] C5-depleted human serum, 0.5 nM human C5, 1 hour at 37° C., luminescence (Table 29)
Catalogue of log10(IC50) values
Recall that a logarithmic scale is used here: each number is log10 of IC50 in nM.

Reference set, count: 7
CCCCCOc1cc(N2C[C@@H](CO)CN(Cc3cc(F)ccc3OC)C2=O)ccc1OC | 1.15
CCCCCOc1cc(N2CC(CNC(=O)c3cnco3)CN(Cc3cc(F)ccc3OC)C2=O)ccc1OC (centres unmarked) | 1.38
CCCCCOc1cc(N2C[C@@H](C)CN(Cc3cc(F)ccc3OC)C2=O)ccc1OC | 1.85
CCCCCOc1cc(N2CC[C@H](C)N(Cc3cccc4c3ccn4Cc3cccnc3)C2=O)ccc1OC | 1.67
CCCCCOc1cc(N2CC(COCC(=O)O)CN(Cc3cc(F)ccc3OC)C2=O)ccc1OC (centres unmarked) | 1.77
CCCCCOc1cc(N2CC[C@H](C)N(Cc3cccc4c3ccn4CC(=O)N3CCOC(COC)C3)C2=O)ccc1OC (some centres unmarked) | 1.05
C=C1CN(Cc2ccc(Br)cc2OC)C(=O)N(c2ccc(OC)c(OCCCCC)c2)C1 | 2.24

Consider the additional compound presented here.
Answer with the recorded log10(IC50) of `CCCCCOc1cc(N2CC[C@H](C)N(Cc3cccc4c3ccn4CC(=O)N3CCNC(=O)C3)C2=O)ccc1OC` only.
1.00
